Numbers sourced from patent EP4692071A1.

- test.protocol: Maximum absorption wavelength (λmax) after color development, spectrophotometer MCPD3000
- Type: physicochemical
- experimental.parameters: photochromic cured product by kneading method, 1 mm thick thiourethane, 0.106 mmol per 100 g monomers
metric.name: Maximum absorption wavelength (nm)

compound	display.unit	Maximum absorption wavelength (nm)
CCCC1(CCC)c2ccccc2-c2c1c1c(c3cc(OC)c(N4CCOc5ccccc54)cc23)OC(c2ccc(OC)cc2)(c2ccc(OC)cc2)C=C1	nm	514
CCCOc1ccc(C2(c3ccc(OCCC)cc3)C=Cc3c4c(c5cc(N(C)c6ccc(C)cc6)c(OC)cc5c3O2)-c2ccccc2C4(CCCCOC)CCCCOC)cc1	nm	507
COc1ccc(C2(c3ccc(OC)cc3)C=Cc3c4c(c5cc(N(C)c6ccc(F)cc6)c(OC)cc5c3O2)-c2ccccc2C4(C)C)cc1	nm	500
COc1ccc(C2(c3ccc(N4CCOCC4)cc3)C=Cc3c4c(c5cc(N6CCCc7ccccc76)c(OC)cc5c3O2)-c2ccc(C)cc2C4(CCCC(F)(F)F)CCCC(F)(F)F)cc1 (stereo not shown)	nm	549
COc1ccc(C2(c3ccc(OC)cc3)C=Cc3c4c(c5cc(N(C)c6ccccc6)c(OC)cc5c3O2)-c2ccccc2C4(C)C)cc1	nm	505
CCCC1(CCC)c2ccccc2-c2c1c1c(c3cc(OC)c(N(C)c4ccccc4)cc23)OC(c2ccc(OC)cc2)(c2ccc(OC)cc2)C=C1	nm	502
COc1ccc(C2(c3ccc(OC)cc3)C=Cc3c4c(c5cc(N6CCOc7ccccc76)c(OC)cc5c3O2)-c2ccccc2C4(C)C)cc1	nm	519
